Tested on: total HDAC activity in HCT116 cells
Test: Total HDAC enzymatic activity assay in treated HCT116 cells
Assay type: cell-based
Conditions: Homo sapiens, HCT-116, 24 h, read-out: HDAC inhibitory IC50 in HCT116 cells (total HDAC enzyme activity)
observed property: IC50
Entry format: amount then unit.

Name the reported IC50 value associated with the compound O=C(/C=C/c1cccc(S(=O)(=O)Nc2ccccc2)c1)NO [PXD101, reference compound]
10.3 µM

====

Target: recombinant HDAC3 (Homo sapiens, UniProt O15379)
Sequence (O15379 whole entry): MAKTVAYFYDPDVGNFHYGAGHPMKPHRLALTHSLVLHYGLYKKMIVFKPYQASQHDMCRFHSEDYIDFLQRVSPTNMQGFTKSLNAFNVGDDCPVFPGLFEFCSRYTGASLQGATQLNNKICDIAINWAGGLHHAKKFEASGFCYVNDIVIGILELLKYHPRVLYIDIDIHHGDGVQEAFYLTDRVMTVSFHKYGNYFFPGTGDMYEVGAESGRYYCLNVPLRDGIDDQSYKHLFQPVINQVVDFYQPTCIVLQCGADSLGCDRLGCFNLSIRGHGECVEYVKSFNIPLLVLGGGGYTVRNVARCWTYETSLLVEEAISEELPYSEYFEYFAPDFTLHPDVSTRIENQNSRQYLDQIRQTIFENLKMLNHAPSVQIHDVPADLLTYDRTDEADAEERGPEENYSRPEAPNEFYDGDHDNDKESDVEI
Sequence (Q9Y618 395-489 partner limits assumed): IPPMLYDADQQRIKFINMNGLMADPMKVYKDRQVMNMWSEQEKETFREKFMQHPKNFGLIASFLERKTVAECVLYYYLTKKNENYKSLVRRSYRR
Assay: Inhibition of recombinant HDAC enzyme activity (fluorogenic kit), HDAC3
Settings: mean ± SEM, read-out: IC50 HDAC3 (Class I)
observed property: pIC50
Answers are plain numbers, as −log10 of the molar value.

Any idea what its pIC50 is? The compound is `Cc1[nH]c2ccccc2c1CCNS(=O)(=O)c1ccc(C=CC(=O)NO)cc1`
8.03

====

Biological target: recombinant HDAC8 (Homo sapiens, UniProt Q9BY41)
Sequence (Q9BY41 whole entry): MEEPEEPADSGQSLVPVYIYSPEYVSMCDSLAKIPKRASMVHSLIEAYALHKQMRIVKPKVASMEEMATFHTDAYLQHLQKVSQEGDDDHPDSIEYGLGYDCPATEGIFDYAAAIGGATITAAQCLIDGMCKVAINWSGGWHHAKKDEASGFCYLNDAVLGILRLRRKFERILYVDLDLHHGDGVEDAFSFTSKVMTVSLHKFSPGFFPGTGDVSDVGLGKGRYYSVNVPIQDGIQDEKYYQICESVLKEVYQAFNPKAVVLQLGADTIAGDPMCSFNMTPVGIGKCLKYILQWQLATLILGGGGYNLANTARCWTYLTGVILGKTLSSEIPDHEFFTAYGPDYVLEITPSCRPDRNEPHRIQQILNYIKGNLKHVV
Test: Inhibition of recombinant HDAC enzyme activity (fluorogenic kit), HDAC8
Conditions: mean ± SEM, read-out: IC50 HDAC8 (Class I)
pIC50: −log10 of the molar value.
observed property: pIC50

Could you share which pIC50 value was measured for `Cc1[nH]c2ccccc2c1CCNS(=O)(=O)c1ccc(C=CC(=O)NO)cc1` ?
< 6.00

====

Molecular target: recombinant HDAC1 (Homo sapiens)
Sequence (Q13547 whole entry): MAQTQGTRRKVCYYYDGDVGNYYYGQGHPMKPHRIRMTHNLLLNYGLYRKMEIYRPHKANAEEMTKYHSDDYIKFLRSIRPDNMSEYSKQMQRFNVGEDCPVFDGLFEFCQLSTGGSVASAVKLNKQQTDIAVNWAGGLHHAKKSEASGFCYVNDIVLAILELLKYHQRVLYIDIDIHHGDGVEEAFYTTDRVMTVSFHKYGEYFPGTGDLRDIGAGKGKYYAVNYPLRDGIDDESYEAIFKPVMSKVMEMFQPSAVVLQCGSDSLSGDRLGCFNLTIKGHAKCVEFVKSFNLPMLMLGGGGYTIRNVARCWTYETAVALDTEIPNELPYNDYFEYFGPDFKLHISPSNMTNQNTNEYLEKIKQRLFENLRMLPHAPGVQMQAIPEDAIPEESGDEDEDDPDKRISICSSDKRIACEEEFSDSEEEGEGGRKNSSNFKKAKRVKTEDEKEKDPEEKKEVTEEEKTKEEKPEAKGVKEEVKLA
Assay: Inhibition of recombinant HDAC enzyme activity (fluorogenic kit), HDAC1
Details: mean ± SEM, read-out: IC50 HDAC1 (Class I)
observed property: IC50 (nM)
Numbers only, in nM.

What value of measured IC50 is listed for `Cc1[nH]c2ccccc2c1CCNS(=O)(=O)c1ccc(C=CC(=O)NO)cc1` ?
7.69

====

Target: recombinant HDAC2 (Homo sapiens, UniProt Q92769)
Sequence (Q92769 whole entry): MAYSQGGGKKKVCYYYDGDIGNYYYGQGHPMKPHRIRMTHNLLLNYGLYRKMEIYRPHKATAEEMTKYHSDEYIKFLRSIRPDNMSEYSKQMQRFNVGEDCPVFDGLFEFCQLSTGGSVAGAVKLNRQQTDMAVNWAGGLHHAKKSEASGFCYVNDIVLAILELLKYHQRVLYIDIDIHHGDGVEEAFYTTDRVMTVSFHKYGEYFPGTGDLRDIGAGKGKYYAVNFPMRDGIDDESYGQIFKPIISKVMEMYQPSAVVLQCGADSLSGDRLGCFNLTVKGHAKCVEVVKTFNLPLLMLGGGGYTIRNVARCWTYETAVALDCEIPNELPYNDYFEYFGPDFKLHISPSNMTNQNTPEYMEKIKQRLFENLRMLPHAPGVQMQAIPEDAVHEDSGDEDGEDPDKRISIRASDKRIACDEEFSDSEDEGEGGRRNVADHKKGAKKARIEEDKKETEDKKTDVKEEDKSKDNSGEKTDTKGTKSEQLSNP
Assay: Inhibition of recombinant HDAC enzyme activity (fluorogenic kit), HDAC2
Details: mean ± SEM, read-out: IC50 HDAC2 (Class I)
observed property: IC50

Look up IC50: `Cc1[nH]c2ccccc2c1CCNS(=O)(=O)c1ccc(C=CC(=O)NO)cc1`
5.13 nM

====

Target: recombinant HDAC4 (Homo sapiens)
Construct: purchased BPS Bioscience Corp
Sequence (P56524 627-1084 limits assumed): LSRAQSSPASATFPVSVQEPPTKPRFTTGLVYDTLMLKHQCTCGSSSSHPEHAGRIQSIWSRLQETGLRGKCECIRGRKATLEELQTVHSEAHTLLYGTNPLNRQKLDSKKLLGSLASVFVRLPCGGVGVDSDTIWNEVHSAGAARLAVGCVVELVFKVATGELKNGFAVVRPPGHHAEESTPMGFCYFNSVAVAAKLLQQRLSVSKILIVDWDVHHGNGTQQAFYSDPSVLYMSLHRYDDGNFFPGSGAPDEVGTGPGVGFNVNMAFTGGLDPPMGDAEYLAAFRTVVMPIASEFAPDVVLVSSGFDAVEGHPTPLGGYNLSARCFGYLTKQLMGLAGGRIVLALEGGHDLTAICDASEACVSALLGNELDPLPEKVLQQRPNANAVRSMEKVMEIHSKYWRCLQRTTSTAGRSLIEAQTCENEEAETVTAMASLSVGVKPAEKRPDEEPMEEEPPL
Assay: Inhibition of recombinant HDAC enzyme activity (fluorogenic kit), HDAC4
Type: biochemical
Details: mean ± SEM, read-out: IC50 HDAC4 (Class IIa)
observed property: pIC50
Numbers only, as −log10 of the molar value.

Reported pIC50 for O=C(/C=C/c1cccc(S(=O)(=O)Nc2ccccc2)c1)NO [PXD101, reference compound] : what is it?
6.79

====

Experiment: SRB cell proliferation assay, normal bone marrow stromal cells HS-5
Assay type: cell-based
Conditions: HS-5 normal bone marrow stromal cells, human normal bone marrow stromal cells
Procedure: Results are shown as mean ± SEM from three independent experiments. […] Cells (1 × 10^4) in 100 μL of medium in 96-well plates were incubated with vehicle (control) or vehicle with test compound for 12 or 24 h. After various treatments, 1 mg/mL of MTT was added and the plates were incubated at 37°C for an additional 2 h, then the cells were pelleted and lysed in 100 μL of dimethyl sulfoxide, and the absorbance at 550 nm was measured on a microplate reader. […]
observed property: GI50 at 48 h

Reported GI50 at 48 h for Cc1[nH]c2ccccc2c1CCNS(=O)(=O)c1ccc(C=CC(=O)NO)cc1 [MPT0G157] : what is it?
> 100 µM
